Would you kindly list selectivity ratio for each of these compounds?
testDescription: Protective index, ratio of ED50 for neurotoxicity in po dosed mouse by rotarod test to ED50 for anticonvulsant activity in po dosed mouse assessed as protection against maximal electroshock-induced seizures
Assay type: toxicity, organism-based
conditionNotes: in vivo, read-out: Ratio ED50
Quick one: just the number, no unit, thanks!

// selectivity ratio value for CC1C(=O)NC(c2ccc(N)cc2)c2ccccc21 (stereo not given) : 10

// selectivity ratio value for CNCC(=O)Nc1ccc(C2NC(=O)C(C)(C)c3ccccc32)cc1 (stereo not given) : 24

// selectivity ratio value for CCCNCC(=O)Nc1ccc(C2NC(=O)C(C)(C)c3ccccc32)cc1 (stereo not given) : 14
